Data origin: ChEMBL document CHEMBL6127131

target: 3',5'-cyclic-AMP phosphodiesterase 4D (Homo sapiens, UniProt Q08499); assay: Inhibition of recombinant full-length PDE4D2 (unknown origin) at 1 uM using FAM-cAMP as substrate preincubated for 15 mins followed by substrate addition and measured after 30 mins by plate reader assay relative to control; conditions: time 45.0 min
Sequence (Q08499 whole entry): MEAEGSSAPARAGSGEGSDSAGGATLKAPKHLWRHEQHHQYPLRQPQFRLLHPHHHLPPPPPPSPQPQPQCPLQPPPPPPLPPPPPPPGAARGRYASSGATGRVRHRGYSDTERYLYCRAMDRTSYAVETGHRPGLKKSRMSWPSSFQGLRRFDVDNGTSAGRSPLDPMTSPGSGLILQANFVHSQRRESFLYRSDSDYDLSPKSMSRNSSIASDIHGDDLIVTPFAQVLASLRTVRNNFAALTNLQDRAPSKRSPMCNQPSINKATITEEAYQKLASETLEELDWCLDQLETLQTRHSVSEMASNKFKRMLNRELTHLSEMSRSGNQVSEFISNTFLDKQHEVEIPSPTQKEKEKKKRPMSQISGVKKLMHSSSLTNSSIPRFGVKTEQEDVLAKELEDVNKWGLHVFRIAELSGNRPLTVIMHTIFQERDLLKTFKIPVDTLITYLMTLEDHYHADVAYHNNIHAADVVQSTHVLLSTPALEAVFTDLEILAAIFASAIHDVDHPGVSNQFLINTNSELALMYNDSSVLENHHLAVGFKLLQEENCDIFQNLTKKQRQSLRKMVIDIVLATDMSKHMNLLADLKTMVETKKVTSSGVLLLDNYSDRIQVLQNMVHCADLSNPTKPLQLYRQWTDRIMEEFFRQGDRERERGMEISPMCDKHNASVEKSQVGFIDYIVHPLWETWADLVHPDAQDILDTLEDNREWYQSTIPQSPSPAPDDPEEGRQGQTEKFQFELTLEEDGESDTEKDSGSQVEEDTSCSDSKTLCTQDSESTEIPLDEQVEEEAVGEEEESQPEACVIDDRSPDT
Form field: inhibition (one value per entry).
Measurement label: inhibition (%)

smiles_code=O=C(NCc1c(F)cccc1F)c1cc2nccc(-c3ccc(OC(F)F)c(OCC4CC4)c3)n2n1 study_target="3',5'-cyclic-AMP phosphodiesterase 4D (Homo sapiens, UniProt Q08499)" measurement_label=inhibition units_symbol=% rel== reported_result=41.9
smiles_code=O=C(NCc1c(F)cc(F)cc1F)c1cc2nccc(-c3ccc(OC(F)F)c(OCC4CC4)c3)n2n1 study_target="3',5'-cyclic-AMP phosphodiesterase 4D (Homo sapiens, UniProt Q08499)" measurement_label=inhibition units_symbol=% rel== reported_result=38.4
smiles_code=CC(C)CNC(=O)c1cnn2c(-c3ccc(OC(F)F)c(OCC4CC4)c3)ccnc12 study_target="3',5'-cyclic-AMP phosphodiesterase 4D (Homo sapiens, UniProt Q08499)" measurement_label=inhibition units_symbol=% rel=< reported_result=73.1
smiles_code=O=C(NCc1ncccn1)c1cc2nccc(-c3ccc(OC(F)F)c(OCC4CC4)c3)n2n1 study_target="3',5'-cyclic-AMP phosphodiesterase 4D (Homo sapiens, UniProt Q08499)" measurement_label=inhibition units_symbol=% rel== reported_result=70.7
smiles_code=O=C(NCc1c(F)cccc1F)c1cnn2c(-c3ccc(OC(F)F)c(OCC4CC4)c3)ccnc12 study_target="3',5'-cyclic-AMP phosphodiesterase 4D (Homo sapiens, UniProt Q08499)" measurement_label=inhibition units_symbol=% rel=< reported_result=73.1
smiles_code=O=C(NCc1c(F)cc(F)cc1F)c1cnn2c(-c3ccc(OC(F)F)c(OCC4CC4)c3)ccnc12 study_target="3',5'-cyclic-AMP phosphodiesterase 4D (Homo sapiens, UniProt Q08499)" measurement_label=inhibition units_symbol=% rel=< reported_result=73.1
smiles_code=CC(C)(C)CNC(=O)c1cnn2c(-c3ccc(OC(F)F)c(OCC4CC4)c3)ccnc12 study_target="3',5'-cyclic-AMP phosphodiesterase 4D (Homo sapiens, UniProt Q08499)" measurement_label=inhibition units_symbol=% rel=< reported_result=73.1
smiles_code=O=C(Nc1nccs1)c1cnn2c(-c3ccc(OC(F)F)c(OCC4CC4)c3)ccnc12 study_target="3',5'-cyclic-AMP phosphodiesterase 4D (Homo sapiens, UniProt Q08499)" measurement_label=inhibition units_symbol=% rel=< reported_result=73.1
smiles_code=O=C(NCc1cccnc1)c1cc2nccc(-c3ccc(OC(F)F)c(OCC4CC4)c3)n2n1 study_target="3',5'-cyclic-AMP phosphodiesterase 4D (Homo sapiens, UniProt Q08499)" measurement_label=inhibition units_symbol=% rel== reported_result=49.3
